# maps each entry to its IC50
# target.or.test.system: human serotonin 5-HT2A receptor (Homo sapiens, UniProt P28223)
# Construct: expressed in transfected cells; host or cells: CHO-K1
# Sequence (P28223 whole entry): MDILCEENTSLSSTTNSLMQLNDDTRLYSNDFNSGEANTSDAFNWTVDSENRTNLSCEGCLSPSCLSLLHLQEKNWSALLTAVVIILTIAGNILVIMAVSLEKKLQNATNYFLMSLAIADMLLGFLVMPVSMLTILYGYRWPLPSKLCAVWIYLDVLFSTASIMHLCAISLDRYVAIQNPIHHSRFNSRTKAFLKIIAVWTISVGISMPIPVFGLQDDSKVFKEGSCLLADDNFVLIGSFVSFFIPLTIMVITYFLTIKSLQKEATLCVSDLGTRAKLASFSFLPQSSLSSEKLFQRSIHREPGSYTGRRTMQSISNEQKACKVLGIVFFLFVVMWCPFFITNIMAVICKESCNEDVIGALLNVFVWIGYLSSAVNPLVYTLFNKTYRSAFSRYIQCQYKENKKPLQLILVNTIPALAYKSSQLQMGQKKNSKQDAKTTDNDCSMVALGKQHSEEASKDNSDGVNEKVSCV
# experiment.notes: Radioligand binding assay, human 5-HT2A receptors ([3H]Ketanserin)
# details: human 5-HT2a; Example 16 table; read-out: IC50 (nM) 5-HT2a

Sample answers from the record:
| molecule | IC50 |
| --- | --- |
| CN1CCN(c2nc(C3(c4ccc(OC(F)(F)F)cc4)CCOCC3)cs2)CC1 [Compound 55] | < 1000 nM |
| Clc1ccc(C2(c3csc(NCCCN4CCOCC4)n3)CCC2)cc1 [Compound 21] | > 1000 nM |
| Clc1ccc(C2(c3csc(C4CCNCC4)n3)CCC2)cc1 [Compound 30] | < 1000 nM |
| CN1CCN(c2nc(C3(c4ccc(Cl)cc4)CCC3)no2)CC1 [Compound 28] | > 1000 nM |
| CN1CCC(c2nc(C3(c4cccc(Cl)c4)CCOCC3)cs2)CC1 [Compound 69] | > 1000 nM |

q: If you can, please state the reported IC50 value of CN1CCN(c2nc(C3(c4ccc(Cl)cc4)CCCC3)cs2)CC1 [Compound 85] .
a: > 1000 nM

q: If you can, please state the reported IC50 value of CCN1CCCC1CNc1nc(C2(c3ccc(Cl)cc3)CCC2)cs1 (stereo not shown) [Compound 25] .
a: < 1000 nM

q: If you can, please state the reported IC50 value of CN1CCN(c2nc(CCc3ccc(Cl)cc3)cs2)CC1 [Compound 32] .
a: < 100 nM

q: If you can, please state the reported IC50 value of Clc1ccc(C2(c3csc(NCCN4CCCCC4)n3)CCC2)cc1 [Compound 23] .
a: < 1000 nM

q: If you can, please state the reported IC50 value of Clc1ccc(C2(c3csc(N4CCNCC4)n3)CCOCC2)cc1 [Compound 37] .
a: < 1000 nM

q: If you can, please state the reported IC50 value of CN1CCN(c2nc(C3(c4ccccc4F)CCCC3)cs2)CC1 [Compound 93] .
a: < 1000 nM

q: If you can, please state the reported IC50 value of Clc1cccc(C2(c3csc(C4CCCNC4)n3)CCOCC2)c1 (stereo not shown) [Compound 38] .
a: > 1000 nM

###

# target.or.test.system: human serotonin 5-HT6 receptor (Homo sapiens, UniProt P50406)
# Construct: expressed in transfected cells; host or cells: HeLa/E6-7
# Sequence (P50406 whole entry): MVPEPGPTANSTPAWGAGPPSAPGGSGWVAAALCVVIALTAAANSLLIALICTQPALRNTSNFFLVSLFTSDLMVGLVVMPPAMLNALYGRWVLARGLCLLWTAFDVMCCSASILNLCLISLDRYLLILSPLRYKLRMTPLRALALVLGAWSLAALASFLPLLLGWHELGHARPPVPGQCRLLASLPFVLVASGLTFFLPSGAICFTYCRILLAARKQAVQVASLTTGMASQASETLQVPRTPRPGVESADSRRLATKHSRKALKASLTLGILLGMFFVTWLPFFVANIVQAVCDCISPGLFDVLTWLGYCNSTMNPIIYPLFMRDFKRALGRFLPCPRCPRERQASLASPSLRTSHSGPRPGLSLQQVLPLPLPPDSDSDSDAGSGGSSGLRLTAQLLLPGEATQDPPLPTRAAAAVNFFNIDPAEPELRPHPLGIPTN
# experiment.notes: Radioligand binding assay, human 5-HT6 receptors ([3H]LSD)
# details: human; Example 100 table; read-out: IC50 (nM) 5-HT6
value.kind: IC50

Sample answers from the record:
| compound | target.or.test.system | IC50 |
| --- | --- | --- |
| CCN(CC)CCCNc1nc(C2(c3cccc(Cl)c3)CCOCC2)cs1 | human serotonin 5-HT6 receptor (Homo sapiens, UniProt P50406) | > 1000 nM |
| COc1ccccc1N1CCN(c2nc(C3(c4ccccc4F)CCCCC3)cs2)CC1 | human serotonin 5-HT6 receptor (Homo sapiens, UniProt P50406) | > 1000 nM |
| CN1CCCN(c2nc(C3(c4ccccc4F)CCCC3)cs2)CC1 | human serotonin 5-HT6 receptor (Homo sapiens, UniProt P50406) | < 100 nM |

q: If you can, please state the reported IC50 value of "Fc1ccccc1C1(c2csc(N3CCNCC3)n2)CCCC1" .
a: < 100 nM

q: If you can, please state the reported IC50 value of CN(C)C1CCN(c2nc(C3(c4ccc(Cl)cc4)CCCCC3)cs2)C1 (centres unmarked) .
a: > 1000 nM

q: If you can, please state the reported IC50 value of "Fc1ccccc1C1(c2csc(N3CCN(CC4CC4)CC3)n2)CCCC1" .
a: < 1000 nM

q: If you can, please state the reported IC50 value of CN1CCCC1CCNc1nc(C2(c3ccccc3F)CCCCC2)cs1 (single isomer, unassigned) [Compound 130] .
a: < 100 nM

q: If you can, please state the reported IC50 value of CN1CCCC1CCNc1nc(C2(c3ccc(Cl)cc3)CCCCC2)cs1 (centres unmarked) .
a: < 1000 nM

q: If you can, please state the reported IC50 value of "Clc1ccc(C2(c3csc(N4CCOCC4)n3)CCOCC2)cc1" .
a: > 1000 nM

q: If you can, please state the reported IC50 value of CN(C)C1CCN(c2nc(C3(c4ccc(Cl)cc4)CCCC3)cs2)C1 (centres unmarked) .
a: < 1000 nM

q: If you can, please state the reported IC50 value of CN1CCCC1CCNc1nc(C2(c3ccccc3F)CCCCC2)cs1 (single isomer, unassigned) [Compound 129] .
a: < 1000 nM

q: If you can, please state the reported IC50 value of "CN1CCCN(c2nc(C3(c4ccc(Cl)cc4)CCCCC3)cs2)CC1" .
a: < 1000 nM

q: If you can, please state the reported IC50 value of "Clc1ccc(C2(c3csc(NCCN4CCOCC4)n3)CCCCC2)cc1" .
a: < 1000 nM

q: If you can, please state the reported IC50 value of "CN1CCN(c2nc(C3(c4ccccc4F)CCOCC3)cs2)CC1" .
a: < 100 nM

q: If you can, please state the reported IC50 value of "CN1CCCN(c2nc(C3(c4ccc(Cl)cc4)CCCC3)cs2)CC1" .
a: < 1000 nM

q: If you can, please state the reported IC50 value of "Fc1ccccc1C1(c2csc(NCCCN3CCOCC3)n2)CCCC1" .
a: > 1000 nM

q: If you can, please state the reported IC50 value of CNC1CCN(c2nc(C3(c4ccc(Cl)cc4)CCCCC3)cs2)C1 (centres unmarked) .
a: > 1000 nM

q: If you can, please state the reported IC50 value of CN(C)C1CCN(c2nc(C3(c4ccccc4F)CCCCC3)cs2)C1 (racemic) .
a: > 1000 nM

q: If you can, please state the reported IC50 value of "Cc1c(-c2csc(N3CCN(C)CC3)n2)sc2ccc(Cl)cc12" .
a: > 1000 nM

q: If you can, please state the reported IC50 value of CN1CCCC1CCNc1nc(C2(c3ccccc3F)CCCC2)cs1 (centres unmarked) .
a: < 1000 nM
